system: Escherichia coli; assay: Antibacterial activity against Escherichia coli KCTC 1682 in presence of 20% human serum after 24 hrs; type: functional; details: KCTC 1682, 24 h
observable: MIC (µM)
Answers are plain numbers, in µM.

Input: Return the recorded MIC value; entry: `CC[C@H](C)[C@H](NC(=O)[C@H](CC(C)C)NC(=O)[C@H](CCCCN)NC(=O)[C@@H](NC(=O)[C@@H](NC(=O)[C@H](CCCNC(=N)N)NC(=O)[C@@H](N)CCCCN)[C@@H](C)CC)C(C)C)C(=O)N[C@@H](CC(C)C)C(=O)N[C@@H](CCCCN)C(=O)N[C@@H](Cc1c[nH]c2ccccc12)C(=O)N[C@@H](CC(C)C)C(=O)N[C@@H](CCCNC(=N)N)C(N)=O`
Output: 8

----------
Give MIC for every item shown.
tested on: Staphylococcus aureus; test: Antibacterial activity against Staphylococcus aureus KCTC 1621 in presence of 20% human serum after 24 hrs; type: functional; details: KCTC 1621, 24 h
Numbers only, in µM.

• CC[C@H](C)[C@H](NC(=O)[C@H](CC(C)C)NC(=O)[C@H](CCCCN)NC(=O)[C@@H](NC(=O)[C@@H](NC(=O)[C@H](CCCNC(=N)N)NC(=O)[C@@H](N)CCCCN)[C@@H](C)CC)C(C)C)C(=O)N[C@@H](CC(C)C)C(=O)N[C@@H](CCCCN)C(=O)N[C@@H](Cc1c[nH]c2ccccc12)C(=O)N[C@@H](CC(C)C)C(=O)N[C@@H](CCCNC(=N)N)C(N)=O = 8

Okay, here is my list. What is MIC for each of these?
1. CC[C@H](C)[C@H](NC(=O)[C@H](CCCNC(=N)N)NC(=O)[C@@H](N)CCCCN)C(=O)N[C@H](C(=O)N[C@@H](CCCCN)C(=O)N[C@H](CC(C)C)C(=O)N[C@H](C(=O)N[C@@H](CC(C)C)C(=O)N[C@@H](CCCCN)C(=O)N[C@@H](Cc1c[nH]c2ccccc12)C(=O)N[C@@H](CC(C)C)C(=O)N[C@@H](CCCNC(=N)N)C(N)=O)[C@@H](C)CC)C(C)C
2. CC[C@H](C)[C@H](NC(=O)[C@H](CC(C)C)NC(=O)[C@@H](CCCCN)NC(=O)[C@@H](NC(=O)[C@@H](NC(=O)[C@H](CCCNC(=N)N)NC(=O)[C@@H](N)CCCCN)[C@@H](C)CC)C(C)C)C(=O)N[C@@H](CC(C)C)C(=O)N[C@@H](CCCCN)C(=O)N[C@@H](Cc1c[nH]c2ccccc12)C(=O)N[C@@H](CC(C)C)C(=O)N[C@@H](CCCNC(=N)N)C(N)=O

Output:
1: 16; 2: 16

----------
tested on: Escherichia coli; assay: Antibacterial activity against Escherichia coli KCTC 1682 in presence of 2.5 mM CaCl2 after 24 hrs; format: functional; conditions: KCTC 1682, 24 h
Assign MIC to each entry below.
One number for each entry, in µM.

• CC[C@H](C)[C@H](NC(=O)[C@H](CC(C)C)NC(=O)[C@@H](CCCCN)NC(=O)[C@@H](NC(=O)[C@@H](NC(=O)[C@H](CCCNC(=N)N)NC(=O)[C@@H](N)CCCCN)[C@@H](C)CC)C(C)C)C(=O)N[C@@H](CC(C)C)C(=O)N[C@@H](CCCCN)C(=O)N[C@@H](Cc1c[nH]c2ccccc12)C(=O)N[C@@H](CC(C)C)C(=O)N[C@@H](CCCNC(=N)N)C(N)=O = 8
• CC[C@H](C)[C@H](NC(=O)[C@H](CC(C)C)NC(=O)[C@H](CCCCN)NC(=O)[C@@H](NC(=O)[C@@H](NC(=O)[C@H](CCCNC(=N)N)NC(=O)[C@@H](N)CCCCN)[C@@H](C)CC)C(C)C)C(=O)N[C@@H](CC(C)C)C(=O)N[C@@H](CCCCN)C(=O)N[C@@H](Cc1c[nH]c2ccccc12)C(=O)N[C@@H](CC(C)C)C(=O)N[C@@H](CCCNC(=N)N)C(N)=O = 8

# ---- query compound ----
Input: Give a short answer stating reported MIC for `CC[C@H](C)[C@H](NC(=O)[C@H](CCCNC(=N)N)NC(=O)[C@@H](N)CCCCN)C(=O)N[C@H](C(=O)N[C@@H](CCCCN)C(=O)N[C@@H](CC(C)C)C(=O)N[C@H](CC(C)C)C(=O)N[C@@H](CC(C)C)C(=O)N[C@@H](CCCCN)C(=O)N[C@@H](Cc1c[nH]c2ccccc12)C(=O)N[C@@H](CC(C)C)C(=O)N[C@@H](CCCNC(=N)N)C(N)=O)C(C)C` .
Output: 16
